tested on: MS2 coat protein; assay: apparent KD of MS2 coat protein; designed switch direction (-1 OFF switch, 1 ON switch): -1; higher = weaker reporter binding; conditions: input ligand: none
Reported apparent KD of MS2 coat protein is given for each of the following sequences.
Numeric only. Scale: nM

{"Sequence content": "AAGACACAUGAGGAUCACCCAUGUGAGGAUAUUCGAUGCUAAGCGUAAGCUUAGUAUCGGAGAAGGCACAAAGG [Salishxclusion 6 - Jieux - Exclusion 1] (Eterna round: R97, puzzle: Exclusion 1)", "apparent KD of MS2 coat protein (nM)": 48.2}

Consider the record given below.
Please look up its apparent KD of MS2 coat protein: GUAGAGUGAGGAUAUACAAGAUCGAUAGAUCGGCGAUCCAUACAUGAGGAUCACCCAUGUAGAAGGCACUCUAC [Mat - Exclusion 2 - Eli Mod - D7] (Eterna round: R97, puzzle: Exclusion 2)
83.5

* * *

Reported apparent KD of K4 kissing-loop reporter is given for each of the following sequences.
tested on: K4 kissing-loop RNA reporter; experiment: apparent KD of K4 kissing-loop reporter; higher = weaker reporter binding; conditions: Eterna round: R107; input ligand: none;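 further: bound reporter read as fluorescence of individual clusters on recovered sequencing chips by microscopy, with normalized cluster intensities fitted with a binding model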
Numeric only. Scale: nM

{"Sequence content": "AAGUCAUAGGCAGGAUAUGCAUAGUAAUAAGGCCAUAUAUACGUAUAGAGUGAUGUUUUGUACCAGGCAGAAGGGCUACAUCAGU [FMN B Excl V7 (+3A)]", "apparent KD of K4 kissing-loop reporter / nM": 594}
{"Sequence content": "AGGGCACUGGCGGCCGCCACUUUUCGUGCGAACCAAAGCUAGUGAUGUUGGCUCCCUAGUUGCAAAAGGACCGGGCCGUUCAUCU [theeternabot_sameState_KL_Trp_B_37]", "apparent KD of K4 kissing-loop reporter / nM": 302}
{"Sequence content": "UAAGAGGACCACUGCGAGAGUCCUCGAAUACGAGGACCGGUACGGCCGCCACUCGAUAAUUUGUAGUGAUGUUGCAAGUAAGAAU [BrourdMod 7 - Jieux - Same State Tryptophan A]", "apparent KD of K4 kissing-loop reporter / nM": 42.1}
{"Sequence content": "AGCGGCCAGUCGGCCGCCACUCCGGGCAGUGAUGUUGCGAAGUGUCUACUAGAGUGAUGUUCUAAGAGGACCGGGACUGACGUAU [Exclusion Tryptophan B Gf 11]", "apparent KD of K4 kissing-loop reporter / nM": 534}
{"Sequence content": "GGUGCUGUCUGUGCCGCCCUCCUCGUCCCUCGAGGACCGGUACGGCCGCCACUCGAGUGAUGUUCGGGUAGCCAUCCCUGCCAGC [BDazzled - #20 Exc. Tryptophan A]", "apparent KD of K4 kissing-loop reporter / nM": 431}
{"Sequence content": "UGAUCUCGGCAGUGAUGUUGCAUAUGAGAAGGAGCGCACGAAAGUGCAGGUAGGUCGCUCAGCCAAAGAAAAUAAAACGAGAUCU [#SwitchBubble #K4Early]", "apparent KD of K4 kissing-loop reporter / nM": 101}
{"Sequence content": "UAUAGAAACGUCCUAUCAAUAAAAUGGGAAGGAGCGAGGAAGAACUCAGGUAGGUCGCCCAAUAACCUUAGUGAUGUUAAGGAAA [Version 1]", "apparent KD of K4 kissing-loop reporter / nM": 137}
{"Sequence content": "UGUCAUUGGUCGGCCGCCACUUCGUAUGAAGUGAUGUUUUGUAGAUUGUGUUGAAAGGUGUGGUGAAGGACCGGGACCGAUGACU [FiskerMod 23 - Jieux - Same State - Tryptophan B]", "apparent KD of K4 kissing-loop reporter / nM": 1010}

So what apparent KD of K4 kissing-loop reporter did AAUGUACAAGUGAUGUUUGUACUUUCCGAAGGAGCGUCAAAUAAGACAGGUAGGUCGCGGAUACUCUAAAUAAUCAGGUCAUUAA [JR_ExcArginiA_Sub019] get with K4 kissing-loop RNA reporter?
88.9

Request: CUUAGGUCAGUUACCCGAGUGAUGUUCUGUCGAGGACCGGUACGGCCGCCACUCGCUCAUUAUCGGUCUGACAAAGAGCUGGCUU [theeternabot_exclusion_KL_Trp_A_9]
208

* * *

system: MS2 coat protein; assay: apparent KD of MS2 coat protein; designed switch direction (-1 OFF switch, 1 ON switch): 1; higher = weaker reporter binding; settings: input ligand: none
Property measured: apparent KD of MS2 coat protein (nM)
Numeric only. Scale: nM

These solved cases illustrate the format of a correct answer.
{"Sequence content": "AAAAGAAACACAGGAUAUACCGCACUUAACGCGGUAGAAGGGUGGGACAUGAGGAUCACCCAUGUGGCCUAAGCGCCAGGCCGC [Tibiorvela] (Eterna round: R96, puzzle: Same State NG 1)", "Subject of test": "MS2 coat protein", "apparent KD of MS2 coat protein, nM": 211}
{"Sequence content": "GGAAUAUGAUGUUACAUGAGGAUCACCCAUGUAGUGAUAACUAAGGAUAUUUGAAAGGGAGGAGAAGAGAAGGUAGGAUCAUAA [AK SSNG3-V2-11.1] (Eterna round: R96, puzzle: Same State NG 3)", "Subject of test": "MS2 coat protein", "apparent KD of MS2 coat protein, nM": 63.7}
{"Sequence content": "GAAUAAAUGAUAGGAUAUACAUGAGGAAUUCUCGUAGAAGGAUCAUGACAUGAGGAUCACCCAUGUAACGCUCGAAAGAGCGUA [Mat - Same State NG 1 - JL mod - D41] (Eterna round: R96, puzzle: Same State NG 1)", "Subject of test": "MS2 coat protein", "apparent KD of MS2 coat protein, nM": 928}
{"Sequence content": "AUUAUUAAUGCAGGAUAUGAUUAACAUGAGGAUCACCCAUGUGGUGUUGUGAGUAAGGAGAGUGAUCAGAAGGGCAUUUUUUGU [JMF's solution 16] (Eterna round: R96, puzzle: Same State NG 2)", "Subject of test": "MS2 coat protein", "apparent KD of MS2 coat protein, nM": 615}

Please look up its apparent KD of MS2 coat protein: AGCUAGUACCGAGGAUAUACAUACAUGAGGAUCACCCAUGUAUACAUGAUUUAAUGAGACUACAUGUAGAAGGCGGUACUAGCA [JL SSNG2 1.23] (Eterna round: R96, puzzle: Same State NG 2)
79.1

Request: GCUACGGCAGUAGGAUAUGUAGGAUAUGGCGAGAGCUAAGCUUGGAAGUCACUUCAGCCAGAAGGACAGAAGGACACCGUGAGG [pwkr ssNG2 2FMN + F9.16] (Eterna round: R96, puzzle: Same State NG 2)
24.7

Request: GGAGCCGGCACUGAGGAUAUUCAUAUUAAAACAUGAGGAUCACCCAUGUAGGCCAGAAGGCCUUGGGAGAAGGCAGGUCGGCCCG [Bibimaor] (Eterna round: R96, puzzle: Same State 2)
311

Request: UUGCCGCGGGUAGGAUAUGGUCACACUUCUAAAACAUGAGGAUCACCCAUGUCCGACACAUAAAGCCAGAAGGACCCGCGGCUC [Erisriin] (Eterna round: R96, puzzle: Same State NG 2)
77.3

Request: GCUCGCACGAUGACCCACAUGAGGAUCACCCAUGUGCUUGGGCAGGAUAUCUAGAUUAAGGAUGUAGAGAAGGGUUGAGCGAGC [SameState NG3 #27] (Eterna round: R96, puzzle: Same State NG 3)
230

* * *

system: MS2 coat protein; assay: apparent KD of MS2 coat protein; designed switch direction (-1 OFF switch, 1 ON switch): 1; higher = weaker reporter binding; conditions: Eterna round: R95; input ligand: none
Reported apparent KD of MS2 coat protein is given for each of the following sequences.
Output should be the measured figure followed by the unit it is expressed in.

{"Sequence content": "UUAUAACAUGAGGAUCACCCAUGUCAUCUAAGUCGAGGAUAUGGGCAAAUAUAAUAAGAACCAGAAGGCGAAUAUU [Mat - Same State 1 - Mod of UCT - D33] (puzzle: Same State 1)", "Value measured": "0.0499 µM"}
{"Sequence content": "GAGUUACUAUCUCAGGAUAUCAUGUCAAAGACAUGAGGAUCACCCAUGUACCAGGAAACUGGUUAUGAGAAGGGAGAUAGUAACA [Mat - Same State 2 - Mod - D51] (puzzle: Same State 2)", "Value measured": "0.0144 µM"}
{"Sequence content": "CGGGUACAUGAGGAUCACCCAUGUAGAAGAGAUGCAGGAUAUGUGGGAAAAGGGAAUGUAACAGAAGGGCAAGGAG [JR_SS!_Sub017] (puzzle: Same State 1)", "Value measured": "0.0941 µM"}
{"Sequence content": "CCAUGGUAACAUGAGGAUCACCCAUGUACAAGCUUUUUGCUCGUUUUAUUUAUUAUUAUUAUUAUUAUUAUUAUUAA [Nishu_Seq1] (puzzle: Sensor for hsa-mir-208a version 2)", "Value measured": "0.0866 µM"}

Consider the record given below.
Please look up its apparent KD of MS2 coat protein: AAGUUAAGCUUUUUGUUCUGCCUAUUCUGACAUGAGGAUCACCCAUGUGGUCGAACGACUACGUGUGUAGUUGAGAU [JR_SHM208A_Sub030] (puzzle: Sensor for hsa-mir-208a)
0.278 µM
